- EXPERIMENT_DESCRIPTION: Human HepG2 cell viability assay in 384 well format
- Type: toxicity, cell-based
- Set-up: dose 125 nL, time 70.5 hour; concentration not given beside the values
- CONDITION_SUMMARY: HepG2 cells, read-out: Inhibition
Provide the recorded cytotoxicity at 70.5 h for the entries that follow.
// units = %; emit number, no label

[ask] Would you kindly share the measured cytotoxicity at 70.5 h for O=C(CCc1nc(-c2cccnc2)no1)NCC1CCN(C2CC2)C1 (stereo unspecified) ?
[reply] -17.6

[ask] Would you kindly share the measured cytotoxicity at 70.5 h for `CN(C)c1ncncc1NC(=O)Cc1c[nH]c2ccc(F)cc12` ?
[reply] -2.95

[ask] Would you kindly share the measured cytotoxicity at 70.5 h for CC(=O)N1CCC2(CCCN(S(=O)(=O)c3ccc(F)cc3)C2)C1 (stereo unspecified) ?
[reply] 5.56

[ask] Would you kindly share the measured cytotoxicity at 70.5 h for `CC1(C)CNC(=O)c2nc(-c3ccccc3)[nH]c2C1` ?
[reply] 14.6

[ask] Would you kindly share the measured cytotoxicity at 70.5 h for `CCc1cccc(NS(=O)(=O)c2cc3c(c(C(=O)O)c2)OCCO3)c1` ?
[reply] 4.16

[ask] Would you kindly share the measured cytotoxicity at 70.5 h for O=C(C1CC(c2ccccc2)=NO1)N1CCCCc2ccccc21 (stereo unspecified) ?
[reply] -7.24

====

- EXPERIMENT_DESCRIPTION: Human HepG2 cell viability assay in 384 well format
- Type: toxicity, cell-based
- Parameters: dose 125 nL, time 70.5 hour; concentration not given beside the values
- CONDITION_SUMMARY: HepG2 cells, read-out: Inhibition
METRIC: cytotoxicity at 70.5 h (%)
// units = %; emit number, no label

[ask] Would you kindly share the measured cytotoxicity at 70.5 h for Cc1cccc(C(=O)N2CCCC2)c1NCC(=O)NC(C)(C#N)C1CC1 (stereo unspecified) ?
[reply] 28.8

[ask] Would you kindly share the measured cytotoxicity at 70.5 h for `CN(CCc1noc(C2CC2)n1)C(=O)C1(N2CCCC2)CCCC1` ?
[reply] -3.64

[ask] Would you kindly share the measured cytotoxicity at 70.5 h for `O=C(C[C@@H]1COC[C@H]2CN(Cc3ccccn3)C[C@@H]12)N1CCOCC1` ?
[reply] -2.94

[ask] Would you kindly share the measured cytotoxicity at 70.5 h for `CS(=O)(=O)CCNC(=O)NCCc1cc2ccccc2o1` ?
[reply] -4.01

[ask] Would you kindly share the measured cytotoxicity at 70.5 h for `Cc1nc(CN2CC[C@@H]3O[C@@H](C(=O)N4CCOCC4)C[C@@H]32)cs1` ?
[reply] -9.93

[ask] Would you kindly share the measured cytotoxicity at 70.5 h for OCC1(CC2CCCCO2)CCN(c2cnc3ccccc3n2)CC1 (stereo unspecified) ?
[reply] -12.6

[ask] Would you kindly share the measured cytotoxicity at 70.5 h for `CC(=O)N1CCn2c(C(=O)N(C)C)cnc2C1` ?
[reply] -29.5

[ask] Would you kindly share the measured cytotoxicity at 70.5 h for `CCCN(CCC)C(=O)c1cnn(C)c1C` ?
[reply] 9.54

[ask] Would you kindly share the measured cytotoxicity at 70.5 h for CN(C)C1CCN(Cc2cnc(S(C)(=O)=O)n2CC2CCCCC2)C1 (stereo unspecified) ?
[reply] -7.41

[ask] Would you kindly share the measured cytotoxicity at 70.5 h for `CN(C)c1cnnc(N2CCN(C(=O)Cc3ccccc3)CC2)c1` ?
[reply] -8

[ask] Would you kindly share the measured cytotoxicity at 70.5 h for `CC(C)CS(=O)(=O)NC(=O)c1ccc2c(c1)ncn2C` ?
[reply] -4.45

====

- EXPERIMENT_DESCRIPTION: Human HepG2 cell viability assay in 384 well format
- Type: toxicity, cell-based
- Set-up: dose 125 nL, time 70.5 hour; concentration not given beside the values
- CONDITION_SUMMARY: HepG2 cells, read-out: Inhibition
METRIC: cytotoxicity at 70.5 h (%)
// units = %; emit number, no label

[ask] Would you kindly share the measured cytotoxicity at 70.5 h for `Cc1ccc(C(=O)N2CCOCC2)cc1NCc1ccsc1` ?
[reply] -12.3

[ask] Would you kindly share the measured cytotoxicity at 70.5 h for `CCOCCCC(=O)Nc1ccc(OCc2noc(C3CC3)n2)cc1` ?
[reply] 7.14

[ask] Would you kindly share the measured cytotoxicity at 70.5 h for `Cc1ccc(C(=O)N2C[C@@H]3C[C@@H](c4nnc(C5CC5)o4)O[C@@H]3C2)s1` ?
[reply] -3.56

[ask] Would you kindly share the measured cytotoxicity at 70.5 h for Cc1ccc(C(=O)NC2CCCCNC2=O)c(=O)[nH]1 (centres undefined) ?
[reply] -6.58

[ask] Would you kindly share the measured cytotoxicity at 70.5 h for CC(C)(C)c1n[nH]c(C2CN(C(=O)c3cc(C4CC4)on3)CCO2)n1 (centres undefined) ?
[reply] 28.3

[ask] Would you kindly share the measured cytotoxicity at 70.5 h for O=c1cccnn1CC1CN(Cc2ccsc2)Cc2nccn2C1 (centres undefined) ?
[reply] 0.993

[ask] Would you kindly share the measured cytotoxicity at 70.5 h for `COc1ccc(CN2C[C@@H]3OCCN(CCN4CCCC4)[C@@H]3C2)cc1` ?
[reply] 11.2

[ask] Would you kindly share the measured cytotoxicity at 70.5 h for `CCCN1CCC(c2nc3ccc(-c4ccncc4)cn3n2)CC1` ?
[reply] 19.7

[ask] Would you kindly share the measured cytotoxicity at 70.5 h for Cc1cc2ccccc2n1CCC(=O)N1CCCC(O)(CN(C)C)CC1 (centres undefined) ?
[reply] -0.891

[ask] Would you kindly share the measured cytotoxicity at 70.5 h for `Clc1ccc(CNc2ccc(Cl)cn2)cc1` ?
[reply] -9.29

[ask] Would you kindly share the measured cytotoxicity at 70.5 h for `Cc1noc(C)c1CN(C)C(=O)c1ccc(C(N)=O)nc1` ?
[reply] -5.9

[ask] Would you kindly share the measured cytotoxicity at 70.5 h for `O=C(CS(=O)(=O)Cc1ccc(Br)cc1F)Nc1cn[nH]c1` ?
[reply] 4.02

[ask] Would you kindly share the measured cytotoxicity at 70.5 h for `CC(=O)N[C@@H]1CN(C(=O)c2cc(C)oc2C)C[C@H]1c1ccc(C)o1` ?
[reply] 23.3

[ask] Would you kindly share the measured cytotoxicity at 70.5 h for `N#Cc1cccc(C(=O)N2C[C@H](CO)C[C@H](CN3CCCC3)C2)c1` ?
[reply] 2.99

[ask] Would you kindly share the measured cytotoxicity at 70.5 h for Cc1ccc(N2CCCC3(CCN(C(=O)c4sccc4C)C3)C2)nn1 (centres undefined) ?
[reply] -4.03

[ask] Would you kindly share the measured cytotoxicity at 70.5 h for COc1cc(OC)c(C2Nc3cc(Cl)ccc3C3=NCCN32)cc1OC (centres undefined) ?
[reply] 73.2

[ask] Would you kindly share the measured cytotoxicity at 70.5 h for `O=c1nc(CNc2ccccc2)[nH]n1Cc1ccccc1` ?
[reply] -13.1

[ask] Would you kindly share the measured cytotoxicity at 70.5 h for `CCc1oc2ccc(NS(=O)(=O)CC)cc2c1C(=O)OC` ?
[reply] -5.49

[ask] Would you kindly share the measured cytotoxicity at 70.5 h for CSCC(C)NCc1ccc2[nH]c(C)c(C)c2c1 (centres undefined) ?
[reply] 1.07

[ask] Would you kindly share the measured cytotoxicity at 70.5 h for `CCc1nc(NC(=O)N(C)Cc2ccoc2)nn1C` ?
[reply] -1.12

[ask] Would you kindly share the measured cytotoxicity at 70.5 h for `CNc1nccnc1C1CCN(C(C)C)CC1` ?
[reply] 12.4

[ask] Would you kindly share the measured cytotoxicity at 70.5 h for CC(C)Cc1cc(NC(=O)N2CCC(Oc3cccnc3)C2)n(C)n1 (centres undefined) ?
[reply] 5.38

[ask] Would you kindly share the measured cytotoxicity at 70.5 h for c1ccc(-c2ncc(CN3CCCCC3CCn3cccn3)cn2)nc1 (centres undefined) ?
[reply] -4.71

[ask] Would you kindly share the measured cytotoxicity at 70.5 h for CC(C)N(C)C(=O)C1CCC2(CCNCC2)O1 (centres undefined) ?
[reply] 5.71

====

- EXPERIMENT_DESCRIPTION: Human HepG2 cell viability assay in 384 well format
- Format: toxicity, cell-based
- Parameters: dose 125 nL, time 70.5 hour; concentration not given beside the values
- CONDITION_SUMMARY: HepG2 cells, read-out: Inhibition
METRIC: cytotoxicity at 70.5 h (%)
// units = %; emit number, no label

[ask] Would you kindly share the measured cytotoxicity at 70.5 h for CCOc1ccc(Cl)c(C(=O)NC(C(N)=O)c2ccccc2)n1 (configuration not stated) ?
[reply] 14.2

[ask] Would you kindly share the measured cytotoxicity at 70.5 h for `CC(C)Nc1nc(N2CCCC2)nc2c1CN(C)CC2` ?
[reply] -9.83

[ask] Would you kindly share the measured cytotoxicity at 70.5 h for `CC(C)c1nnc2n1CCN(C(=O)c1ccc(OCC3CC3)cc1)C2` ?
[reply] -6.55

[ask] Would you kindly share the measured cytotoxicity at 70.5 h for `COCCNc1nc2c(c(NCc3ccncc3)n1)CCNCC2` ?
[reply] -7.33

[ask] Would you kindly share the measured cytotoxicity at 70.5 h for `Cc1ccc(CN2CCCn3c(nc(CN4CCCC4)cc3=O)C2)s1` ?
[reply] -8.86

[ask] Would you kindly share the measured cytotoxicity at 70.5 h for Cc1nn(C)c(N2CCOCC2)c1CNC1CCCCNC1=O (configuration not stated) ?
[reply] -5.43

[ask] Would you kindly share the measured cytotoxicity at 70.5 h for CCOCCN1CCN(CC(=O)NC2(C#N)CCCC2)CC1C (configuration not stated) ?
[reply] 10.7

[ask] Would you kindly share the measured cytotoxicity at 70.5 h for `COCc1csc(NC(=O)NCc2ncccc2C)n1` ?
[reply] 0.235

[ask] Would you kindly share the measured cytotoxicity at 70.5 h for CC(NC(=O)c1ccc(C(N)=O)cc1)c1cccc(N2CCOC2=O)c1 (configuration not stated) ?
[reply] 0.0239

[ask] Would you kindly share the measured cytotoxicity at 70.5 h for `O=C(c1ccnnc1)N1CCn2cc(CN3CCCCC3)nc2C1` ?
[reply] -4.84

[ask] Would you kindly share the measured cytotoxicity at 70.5 h for CC(O)CNCc1ccccc1C(F)(F)F (configuration not stated) ?
[reply] -5.36

[ask] Would you kindly share the measured cytotoxicity at 70.5 h for CCOCC1CN(Cc2ccc3c(c2)OCO3)Cc2nccn2C1 (configuration not stated) ?
[reply] 0.869
